Target: T1, recombinant cynomologus N-terminal CCR6 peptide Fc (cynomolgus monkey; human)
T1 construct: It differs from the human construct only in the CCR6 N-terminus; also called Cyno CCR6-Fc; cynoCCR6-Nter-Fc
Assay: SPR, cynomolgus CCR6 N-terminal Fc fusion coupled on the sensor chip, FAB as analyte
READOUT_TYPE: pKd
Keep it numeric: pKd is minus log10 of the concentration in mol/L.

Problem: # query: pKd of entry VH5/VL1 FAB (parental) (Fab, V domains shown, Human FAB fragment; also called parental FAB; parental VH5/VL1 FAB) VH: EVQLVESGGGLVQPGGSLRLSCAASGFSFSDYYMYWVRQAPGKGLEWVSYITNGGITYYPDSVKGRFTISRDNSKNTLYLQMNSLRAEDTAVYYCTSPLRGAWFAYWGQGTLVTVSS VL: DVVMTQSPLSLPVTLGQPASISCRSSQSIVHSNGNTYLEWYQQRPGQSPRLLIYKVSNRFSGVPDRFSGSGSGTDFTLKISRVEAEDVGVYYCFQGSHVPLTFGQGTKLEIK
Result: 7.47

Problem: Okay, and VH5/VL1-B3C9-G29A FAB (Fab, name in Kabat numbering, V domains shown) VH: EVQLVESGGGLVQPGGSLRLSCAASGFSFSDYYMYWVRQAPGKGLEWVSYITTGGRTYYPDSVKGRFTISRDNSKNTLYLQMNSLRAEDTAVYYCTSPLRGAWFAYWGQGTLVTVSS VL: DVVMTQSPLSLPVTLGQPASISCRSSQSIVHSNANTYLEWYQQRPGQSPRLLIYKVSNRFSGVPDRFSGSGSGTDFTLKISRVEAEDVGVYYCFQGTYYPLTFGQGTKLEIK ?
Result: 8.91

Problem: Okay, and VH5/VL1-G8-G29A FAB (Fab, V domains shown) VH: EVQLVESGGGLVQPGGSLRLSCAASGFSFSDYYMYWVRQAPGKGLEWVSYITNGGITYYPDSVKGRFTISRDNSKNTLYLQMNSLRAEDTAVYYCTSPLRGAWFAYWGQGTLVTVSS VL: DVVMTQSPLSLPVTLGQPASISCRSSQSIVHSNANTYLEWYQQRPGQSPRLLIYKVSNRFSGVPDRFSGSGSGTDFTLKISRVEAEDVGVYYCFQGTYLPLTFGQGTKLEIK ?
Result: 8.66

Problem: Okay, and VH5/VL1-B3G8-G29A FAB (Fab, name in Kabat numbering, V domains shown) VH: EVQLVESGGGLVQPGGSLRLSCAASGFSFSDYYMYWVRQAPGKGLEWVSYITTGGRTYYPDSVKGRFTISRDNSKNTLYLQMNSLRAEDTAVYYCTSPLRGAWFAYWGQGTLVTVSS VL: DVVMTQSPLSLPVTLGQPASISCRSSQSIVHSNANTYLEWYQQRPGQSPRLLIYKVSNRFSGVPDRFSGSGSGTDFTLKISRVEAEDVGVYYCFQGTYLPLTFGQGTKLEIK ?
Result: 8.93

The values you see were collected from patent US20180086836A1.
